TESTED SYSTEM: α-Glucosidase (EC 3.2.1.20) from Saccharomyces cerevisiae (Baker's yeast) (Saccharomyces cerevisiae)
Construct: purchased Sigma-Aldrich (St. Louis, MO)
Sequence (P53341 whole entry): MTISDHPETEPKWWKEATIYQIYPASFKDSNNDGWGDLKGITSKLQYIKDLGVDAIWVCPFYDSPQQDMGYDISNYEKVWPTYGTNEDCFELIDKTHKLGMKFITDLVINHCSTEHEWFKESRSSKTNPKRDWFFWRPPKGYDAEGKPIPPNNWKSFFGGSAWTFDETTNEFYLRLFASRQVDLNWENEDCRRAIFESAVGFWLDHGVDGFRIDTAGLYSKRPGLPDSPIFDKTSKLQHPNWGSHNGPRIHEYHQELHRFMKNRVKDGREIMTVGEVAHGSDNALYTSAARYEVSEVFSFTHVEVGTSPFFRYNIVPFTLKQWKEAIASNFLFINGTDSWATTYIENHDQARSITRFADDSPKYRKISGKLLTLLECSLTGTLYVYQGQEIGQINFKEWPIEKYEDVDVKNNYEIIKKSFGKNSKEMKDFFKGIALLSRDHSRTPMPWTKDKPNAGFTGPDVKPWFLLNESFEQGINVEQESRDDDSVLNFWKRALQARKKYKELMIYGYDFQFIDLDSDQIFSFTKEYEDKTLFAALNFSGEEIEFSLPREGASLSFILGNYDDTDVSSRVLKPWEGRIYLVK
ASSAY COMMENT: biochemical
RUN PARAMETERS: compounds, Table 2; read-out: IC50 Baker's yeast α-glucosidase
pIC50: −log10 of the molar value.
Overview of recorded pIC50 for various molecules

>  <SMILES INPUT>
C=C(C)[C@@H]1CC[C@]2(C(=O)N(C(=O)NC3CCCCC3)C3CCCCC3)CC[C@]3(C)[C@H](CC[C@@H]4[C@@]5(C)CC[C@H](OC(=O)CCCC)C(C)(C)[C@@H]5CC[C@]43C)[C@@H]12

>  <pIC50>
< 3.22

$$$$
>  <SMILES INPUT>
C=C(C)[C@@H]1CC[C@]2(C(=O)N(C(=O)NC3CCCCC3)C3CCCCC3)CC[C@]3(C)[C@H](CC[C@@H]4[C@@]5(C)CC[C@H](OC(=O)CCCCC)C(C)(C)[C@@H]5CC[C@]43C)[C@@H]12

>  <pIC50>
< 3.22

$$$$
>  <SMILES INPUT>
COc1cc([C@H]2c3c(cc(OC)c(O)c3OC)C[C@@H](CO)[C@@H]2CO[C@@H]2O[C@H](CO)[C@@H](O)[C@H](O)[C@H]2O)cc(OC)c1O

>  <pIC50>
< 3.22

$$$$
